Would you mind telling me the reported TGI of each entry?
# System: OVCAR-4 ovarian
# Method: NCI tumour cell line growth inhibition, 48 h
Where a SMILES comes first, the peptide text is derived from it. [ ]: non-standard residue; d: D form. The star is where a group is joined. ξ: configuration not given here. NMeY = CN[C@@H](Cc1ccc(O)cc1)C(=O)O; Cbz = O=C(OCc1ccccc1)*; ξA = CC(N)C(=O)O

Recorded results for 3 compounds are shown here.
Compound	Test target	TGI
COc1cc2ccnc(C#N)c2cc1OCc1ccccc1	OVCAR-4 ovarian	> 100 µM
COc1cccc(C(=O)NNc2nc(Cl)nc(N3CCN(C(c4ccccc4)c4ccccc4)CC3)n2)c1	OVCAR-4 ovarian	3.44 µM
COc1ccc(C[C@@H](C(=O)N[C@@H](C)C(N)=O)N(C)C(=O)[C@@H]2CCCN2C(=O)[C@H](CC(C)C)NC(=O)C(C)NC(=O)OCc2ccccc2)cc1 (stereo partly drawn) (Cbz-[ξA]LP[NMeY](Me)A-NH2)	OVCAR-4 ovarian	> 100 µM

Please give TGI, item by item, for the list that follows.
1. Cc1c2c(n3c(nc4ccccc43)c1C#N)N(c1ccc(F)cc1)CC2
2. CSC1=CC(=O)c2ccccc2C1=O
3. CCCCCCCCCN=C(N)c1ccc(N2CCN(c3ccc(C(N)=NCCCCCCCCC)cc3)CC2)cc1
4. CC(=O)Oc1ccc2c(c1)[nH]c1c3ccc(OC(C)=O)cc3oc(=O)c21
5. CC(=O)NC1C(OCc2ccccc2)OC(CO)C(O)C1OCC(=O)NC(C(=O)NC(CCC(=O)NCCCCCC(=O)Nc1ccc2c(c1)CN1C(=O)c3ccccc3C1=N2)C(N)=O)C(C)C (stereo not drawn)

Result block:
1: > 100 µM; 2: 2.67 µM; 3: > 50 µM; 4: > 100 µM; 5: 53 µM
